In this section we review reported NEUTROPHIL values for a set of molecules.
species: Rattus norvegicus; assay: DrugMatrix - Regimen: Daily Repeat; assay type: toxicity, organism-based, Sprague-Dawley; parameters: regimen Daily Repeat, gender Male, age 6-8 weeks; conditions: in vivo, po, 0 mg/kg, 120 h, tissue Blood, route oral GAVAGE, dose level Control, time 5 day, vehicle 100 % WATER
quantity name: NEUTROPHIL (%)

[[record]]
molecule = "CCCc1nn(C)c2c(=O)[nH]c(-c3cc(S(=O)(=O)N4CCN(C)CC4)ccc3OCC)nc12"
quantity_name = "NEUTROPHIL"
assay_value = 7.17

[[record]]
molecule = "O=P1(N(CCCl)CCCl)NCCCO1 (stereo not given) [CYCLOPHOSPHAMIDE ANHYDROUS]"
quantity_name = "NEUTROPHIL"
assay_value = 8.67

[[record]]
molecule = "Nc1ccc(S(=O)(=O)Nc2ncccn2)cc1 [SULFADIAZINE]"
quantity_name = "NEUTROPHIL"
assay_value = 13.8

[[record]]
molecule = "CNS(=O)(=O)Cc1ccc2[nH]cc(CCN(C)C)c2c1"
quantity_name = "NEUTROPHIL"
assay_value = 8.17

[[record]]
molecule = "CN1C2CCCC1CC(NC(=O)c1nn(C)c3ccccc13)C2 (stereo not given) [GRANISETRON]"
quantity_name = "NEUTROPHIL"
assay_value = 6.67

[[record]]
molecule = "CC[C@H]1OC(=O)[C@H](C)[C@@H](O[C@H]2C[C@@](C)(OC)[C@@H](O)[C@H](C)O2)[C@H](C)[C@@H](O[C@@H]2O[C@H](C)C[C@H](N(C)C)[C@H]2O)[C@](C)(O)C[C@@H](C)CN(C)[C@H](C)[C@@H](O)[C@]1(C)O [AZITHROMYCIN]"
quantity_name = "NEUTROPHIL"
assay_value = 5.67

[[record]]
molecule = "O=C(O)c1cc(=O)c2c(OCC(O)COc3cccc4oc(C(=O)O)cc(=O)c34)cccc2o1 [CROMOLYN]"
quantity_name = "NEUTROPHIL"
assay_value = 12.67

[[record]]
molecule = "Nc1ccc(S(=O)(=O)Nc2nccs2)cc1 [SULFATHIAZOLE]"
quantity_name = "NEUTROPHIL"
assay_value = 6.67

[[record]]
molecule = "CC(C)(C)NC[C@H](O)COc1nsnc1N1CCOCC1 [TIMOLOL]"
quantity_name = "NEUTROPHIL"
assay_value = 6.67

[[record]]
molecule = "CCN[C@@H](C)Cc1cccc(C(F)(F)F)c1 [DEXFENFLURAMINE]"
quantity_name = "NEUTROPHIL"
assay_value = 13.8

[[record]]
molecule = "Cc1c(N(C)CS(=O)(=O)[O-])c(=O)n(-c2ccccc2)n1C.[Na+] [DIPYRONE SODIUM]"
quantity_name = "NEUTROPHIL"
assay_value = 6.33

[[record]]
molecule = "CCN(CC)CC#CCOC(=O)C(O)(c1ccccc1)C1CCCCC1 (stereo not given) [OXYBUTYNIN]"
quantity_name = "NEUTROPHIL"
assay_value = 12

[[record]]
molecule = "CCCCCCCCCCCCCCCC[n+]1ccccc1.[Br-]"
quantity_name = "NEUTROPHIL"
assay_value = 6.83

[[record]]
molecule = "OCCO [ETHYLENE GLYCOL]"
quantity_name = "NEUTROPHIL"
assay_value = 7.17

[[record]]
molecule = "CCOC(N)=O"
quantity_name = "NEUTROPHIL"
assay_value = 9.67

